# assay_name: Saturation solubility according to pH change
# Format: physicochemical
# condition: pH 5.0 phosphate buffer solution, pH 5, aqueous buffer, thermodynamic from solid, pH 5.0 phosphate buffer solution, final pH 5.0, room temperature, 12 hours; read-out: Concentration (saturation solubility), Mean
measured_metric: solubility at 12 h (µg/mL)
Answer in µg/mL, number only, no unit symbol.

Q. Return solubility at 12 h for the following compound: `NC(=O)O[C@@H](Cn1ncnn1)c1ccccc1Cl`
A. 1910

====

# assay_name: Saturation solubility according to pH change
# Format: physicochemical
# condition: pH 1 hydrochloric acid solution, pH 1, simulated gastric fluid, thermodynamic from solid, pH 1 hydrochloric acid solution, room temperature, 12 hours; read-out: Concentration (saturation solubility), Test solution 1
measured_metric: solubility at 12 h (µg/mL)
Answer in µg/mL, number only, no unit symbol.

Q. Return solubility at 12 h for the following compound: `NC(=O)O[C@@H](Cn1ncnn1)c1ccccc1Cl`
A. 1940

====

# assay_name: Saturation solubility according to pH change
# Assay type: physicochemical
# condition: pH 6.5 phosphate buffer solution, pH 6.5, aqueous buffer, thermodynamic from solid, pH 6.5 phosphate buffer solution, final pH 6.6, room temperature, 12 hours; read-out: Concentration (saturation solubility), Test solution 1
measured_metric: solubility at 12 h (µg/mL)
Answer in µg/mL, number only, no unit symbol.

Q. Return solubility at 12 h for the following compound: `NC(=O)O[C@@H](Cn1ncnn1)c1ccccc1Cl`
A. 1860

====

# assay_name: Saturation solubility according to pH change
# Assay type: physicochemical
# condition: pH 5.0 phosphate buffer solution, pH 5, aqueous buffer, thermodynamic from solid, pH 5.0 phosphate buffer solution, final pH 5.0, room temperature, 12 hours; read-out: Concentration (saturation solubility), Test solution 2
measured_metric: solubility at 12 h (µg/mL)
Answer in µg/mL, number only, no unit symbol.

Q. Return solubility at 12 h for the following molecule: `NC(=O)O[C@@H](Cn1ncnn1)c1ccccc1Cl`
A. 1910

====

# assay_name: Saturation solubility according to pH change
# Type: physicochemical
# condition: purified water, pH 6.2, water, thermodynamic from solid, Purified water, final pH 6.2, room temperature, 12 hours; read-out: Concentration (saturation solubility), Test solution 1
measured_metric: solubility at 12 h (µg/mL)
Answer in µg/mL, number only, no unit symbol.

Q. Return solubility at 12 h for the following compound: `NC(=O)O[C@@H](Cn1ncnn1)c1ccccc1Cl`
A. 1800

====

# assay_name: Saturation solubility according to pH change
# Format: physicochemical
# condition: purified water, pH 6.2, water, thermodynamic from solid, Purified water, final pH 6.2, room temperature, 12 hours; read-out: Concentration (saturation solubility), Test solution 2
measured_metric: solubility at 12 h (µg/mL)
Answer in µg/mL, number only, no unit symbol.

Q. Return solubility at 12 h for the following compound: `NC(=O)O[C@@H](Cn1ncnn1)c1ccccc1Cl`
A. 1810

====

# assay_name: Saturation solubility according to the concentration of cyclodextrin derivative
# Type: physicochemical
# condition: aqueous with cosolvent or surfactant or cyclodextrin, thermodynamic from solid, Captisol 40 % W/V, water for injection, room temperature, 6 hours
measured_metric: solubility at 6 h (mg/mL)
Answer in mg/mL, number only, no unit symbol.

Q. Return solubility at 6 h for the following molecule: `NC(=O)O[C@@H](Cn1ncnn1)c1ccccc1Cl`
A. 45.1

====

# assay_name: Saturation solubility according to pH change
# Assay type: physicochemical
# condition: pH 8.0 phosphate buffer solution, pH 8, aqueous buffer, thermodynamic from solid, pH 8.0 phosphate buffer solution, final pH 8.0, room temperature, 12 hours; read-out: Concentration (saturation solubility), Mean
measured_metric: solubility at 12 h (µg/mL)
Answer in µg/mL, number only, no unit symbol.

Q. Return solubility at 12 h for the following molecule: `NC(=O)O[C@@H](Cn1ncnn1)c1ccccc1Cl`
A. 1810

====

# assay_name: Saturation solubility according to the concentration of cyclodextrin derivative
# Format: physicochemical
# condition: aqueous with cosolvent or surfactant or cyclodextrin, thermodynamic from solid, Cavitron 10 % W/V, water for injection, room temperature, 6 hours
measured_metric: solubility at 6 h (mg/mL)
Answer in mg/mL, number only, no unit symbol.

Q. Return solubility at 6 h for the following compound: `NC(=O)O[C@@H](Cn1ncnn1)c1ccccc1Cl`
A. 13.2

====

# assay_name: Saturation solubility according to the concentration of cyclodextrin derivative
# Assay type: physicochemical
# condition: water for injection without cyclodextrin, water, thermodynamic from solid, Cavitron column, 0 % W/V cyclodextrin derivative (Comparative Example, no cyclodextrin), water for injection, room temperature
measured_metric: solubility (µg/mL)
Answer in µg/mL, number only, no unit symbol.

Q. Return solubility for the following compound: `NC(=O)O[C@@H](Cn1ncnn1)c1ccccc1Cl`
A. 1800

====

# assay_name: Saturation solubility according to the concentration of cyclodextrin derivative
# Format: physicochemical
# condition: aqueous with cosolvent or surfactant or cyclodextrin, thermodynamic from solid, Captisol 10 % W/V, water for injection, room temperature, 6 hours
measured_metric: solubility at 6 h
Put your answer as a value accompanied by its unit after it.

Q. Return solubility at 6 h for the following molecule: `NC(=O)O[C@@H](Cn1ncnn1)c1ccccc1Cl`
A. 12.8 mg/mL

====

# assay_name: Saturation solubility according to pH change
# Format: physicochemical
# condition: pH 3.0 phosphate buffer solution, pH 3, aqueous buffer, thermodynamic from solid, pH 3.0 phosphate buffer solution, final pH 3.1, room temperature, 12 hours; read-out: Concentration (saturation solubility), Mean
measured_metric: solubility at 12 h (µg/mL)
Answer in µg/mL, number only, no unit symbol.

Q. Return solubility at 12 h for the following molecule: `NC(=O)O[C@@H](Cn1ncnn1)c1ccccc1Cl`
A. 1870

====

# assay_name: Saturation solubility according to the concentration of cyclodextrin derivative
# Assay type: physicochemical
# condition: aqueous with cosolvent or surfactant or cyclodextrin, thermodynamic from solid, Cavitron 30 % W/V, water for injection, room temperature, 6 hours
measured_metric: solubility at 6 h (mg/mL)
Answer in mg/mL, number only, no unit symbol.

Q. Return solubility at 6 h for the following molecule: `NC(=O)O[C@@H](Cn1ncnn1)c1ccccc1Cl`
A. 38.6

====

# assay_name: Saturation solubility according to pH change
# Type: physicochemical
# condition: pH 6.5 phosphate buffer solution, pH 6.5, aqueous buffer, thermodynamic from solid, pH 6.5 phosphate buffer solution, final pH 6.6, room temperature, 12 hours; read-out: Concentration (saturation solubility), Mean
measured_metric: solubility at 12 h

Q. Return solubility at 12 h for the following molecule: `NC(=O)O[C@@H](Cn1ncnn1)c1ccccc1Cl`
A. 1860 µg/mL

====

# assay_name: Saturation solubility according to the concentration of cyclodextrin derivative
# Assay type: physicochemical
# condition: aqueous with cosolvent or surfactant or cyclodextrin, thermodynamic from solid, Captisol (sulfobutyl ether-β-cyclodextrin sodium salt) 5 % W/V, water for injection, room temperature, 6 hours
measured_metric: solubility at 6 h

Q. Return solubility at 6 h for the following compound: `NC(=O)O[C@@H](Cn1ncnn1)c1ccccc1Cl`
A. 6.7 mg/mL

====

# assay_name: Saturation solubility according to the concentration of cyclodextrin derivative
# Assay type: physicochemical
# condition: aqueous with cosolvent or surfactant or cyclodextrin, thermodynamic from solid, Captisol 20 % W/V, water for injection, room temperature, 6 hours
# Description: 2-Hydroxypropyl-β-cyclodextrin (trade name: Cavitron) and sulfobutyl ether-β-cyclodextrin sodium salt (trade name: Captisol) as cyclodextrin compounds were each dissolved in water for injection at various concentrations as shown in Table 1. […] As a comparative example, the saturation solubility of carbamic acid (R)-1-(2-chlorophenyl)-2-tetrazol-2-yl)ethyl ester to which no cyclodextrin compound had been added was measured at room temperature. […]
measured_metric: solubility at 6 h (mg/mL)
Answer in mg/mL, number only, no unit symbol.

Q. Return solubility at 6 h for the following molecule: `NC(=O)O[C@@H](Cn1ncnn1)c1ccccc1Cl`
A. 24.5

====

# assay_name: Saturation solubility according to the concentration of cyclodextrin derivative
# Type: physicochemical
# condition: aqueous with cosolvent or surfactant or cyclodextrin, thermodynamic from solid, Cavitron 20 % W/V, water for injection, room temperature, 6 hours
# Method: 2-Hydroxypropyl-β-cyclodextrin (trade name: Cavitron) and sulfobutyl ether-β-cyclodextrin sodium salt (trade name: Captisol) as cyclodextrin compounds were each dissolved in water for injection at various concentrations as shown in Table 1. […] As a comparative example, the saturation solubility of carbamic acid (R)-1-(2-chlorophenyl)-2-tetrazol-2-yl)ethyl ester to which no cyclodextrin compound had been added was measured at room temperature. […]
measured_metric: solubility at 6 h (mg/mL)
Answer in mg/mL, number only, no unit symbol.

Q. Return solubility at 6 h for the following molecule: `NC(=O)O[C@@H](Cn1ncnn1)c1ccccc1Cl`
A. 27.9

This collection of values is drawn from patent US12070447B2.
